# Test system: H1 human embryonic stem cells
# assay_summary: Primary screening: definitive endoderm differentiation in the absence of activin A, cell number and SOX17 (Example 3)
# Type: cell-based
# assay_context: 2.5 μM compound, 20 ng/ml Wnt3a days 1-2, no activin A, four-day assay
Field: Cell Number: % of positive control. Provide a value for each of the compounds that follow.

**Query** Can you share its Cell Number: % of positive control? I mean this compound: CN1CCC(=O)NCCCNc2cccc(c2)-c2ncnc(n2)Nc2cccc(c2)C1
**Result** 44.44 % of positive control

**Query** Same question for O=C1CCN2CCN(CC2)Cc2cccc(c2)Nc2ncnc(n2)-c2cncc(c2)CCCN1 please.
**Result** 24.13 % of positive control

**Query** Same question for CC(C)(C)OC(=O)NCCc1cccc(Nc2ncnc(-c3ccnc(C#CCO)c3)n2)c1 please.
**Result** 133.82 % of positive control

**Query** Same question for CCN1CC(=O)NCCCc2cc(ccc2F)-c2ncnc(n2)Nc2cc(Cl)cc(c2)C1 please.
**Result** 146.17 % of positive control

###

# Tested on: H1 human embryonic stem cells
# assay_summary: Analog screening with GDF-8 and growth factor/agonist pool (Example 8, Tables 7 and 8)
# Type: cell-based
# assay_context: Plate 2; compound + EGF, FGF, PDGF-A, VEGF, PDGF-D, muscimol, GDF8; positive control Activin A/Wnt3a
Field: Sox17 Expression, % of positive control. Provide a value for each of the compounds that follow.

**Query** Can you share its Sox17 Expression, % of positive control? I mean this compound: CN1CCCc2cccc(c2)-c2ncnc(n2)Nc2cccc(c2)CCNC(=O)C1
**Result** 30.7 % of positive control

**Query** Same question for CN1CCCC(=O)NCCc2cccc(c2)Nc2ncnc(n2)-c2cccc(c2)CCC1 please.
**Result** 28.3 % of positive control

**Query** Same question for O=C1CCN2CCN(CC2)Cc2cc(Cl)cc(c2)Nc2ncnc(n2)-c2cncc(c2)CCCN1 please.
**Result** 35.0 % of positive control

**Query** Same question for O=C1NCCCc2cncc(c2)-c2ncnc(n2)Nc2cc(Cl)cc(c2)CN2CCCC1C2 (stereo not shown) please.
**Result** 86.2 % of positive control

###

# Test system: H1 human embryonic stem cells
# assay_summary: Secondary assay: panel of compounds with growth factor combinations and muscimol, no activin A (Example 6, Table 5)
# Type: cell-based
# assay_context: no AA (with Wnt3a); FGF4 + PDGF-A + VEGF
measure: Cell Number, Average Total Cell Number
Provide a numeric answer; units are not to be included.

**Query** Can you share its Cell Number, Average Total Cell Number? I mean this compound: O=C1NCCCc2cncc(c2)-c2ncnc(n2)Nc2cccc(c2)CN2CCCC1C2 (stereo not shown)
**Result** 13198

**Query** Same question for O=C1NCCCc2cncc(c2)-c2ncnc(n2)Nc2cc(Cl)cc(c2)CN2CCCC1C2 (stereo not shown) please.
**Result** 6731

**Query** Same question for O=C1NCCCc2cncc(c2)-c2ncnc(n2)Nc2cccc(c2)CN2CCC1CC2 please.
**Result** 12277

**Query** Same question for CCN1CC(=O)NCCCc2cncc(c2)-c2ncnc(n2)Nc2cc(Cl)cc(c2)C1 please.
**Result** 16068

**Query** Same question for O=C1CCN2CCN(CC2)Cc2cc(Cl)cc(c2)Nc2ncnc(n2)-c2cncc(c2)CCCN1 please.
**Result** 15262

**Query** Same question for CN1CCC(=O)NCCCNc2ncccc2-c2ncnc(n2)Nc2cccc(c2)C1 please.
**Result** 8856

**Query** Same question for CCN1CCCc2cccc(c2)-c2ncnc(n2)Nc2cccc(c2)CCNC(=O)C1 please.
**Result** 8146

Attribution: patent US9593305B2
